# Test system: human TRPA1 (Homo sapiens)
# Construct: expressed in transfected cells; host or cells: Human embryonic kidney-derived 293T cells, transiently transfected with the pcDNA3.1/zeo(+) human TRPA1 plasmid
# Sequence (O75762 whole entry): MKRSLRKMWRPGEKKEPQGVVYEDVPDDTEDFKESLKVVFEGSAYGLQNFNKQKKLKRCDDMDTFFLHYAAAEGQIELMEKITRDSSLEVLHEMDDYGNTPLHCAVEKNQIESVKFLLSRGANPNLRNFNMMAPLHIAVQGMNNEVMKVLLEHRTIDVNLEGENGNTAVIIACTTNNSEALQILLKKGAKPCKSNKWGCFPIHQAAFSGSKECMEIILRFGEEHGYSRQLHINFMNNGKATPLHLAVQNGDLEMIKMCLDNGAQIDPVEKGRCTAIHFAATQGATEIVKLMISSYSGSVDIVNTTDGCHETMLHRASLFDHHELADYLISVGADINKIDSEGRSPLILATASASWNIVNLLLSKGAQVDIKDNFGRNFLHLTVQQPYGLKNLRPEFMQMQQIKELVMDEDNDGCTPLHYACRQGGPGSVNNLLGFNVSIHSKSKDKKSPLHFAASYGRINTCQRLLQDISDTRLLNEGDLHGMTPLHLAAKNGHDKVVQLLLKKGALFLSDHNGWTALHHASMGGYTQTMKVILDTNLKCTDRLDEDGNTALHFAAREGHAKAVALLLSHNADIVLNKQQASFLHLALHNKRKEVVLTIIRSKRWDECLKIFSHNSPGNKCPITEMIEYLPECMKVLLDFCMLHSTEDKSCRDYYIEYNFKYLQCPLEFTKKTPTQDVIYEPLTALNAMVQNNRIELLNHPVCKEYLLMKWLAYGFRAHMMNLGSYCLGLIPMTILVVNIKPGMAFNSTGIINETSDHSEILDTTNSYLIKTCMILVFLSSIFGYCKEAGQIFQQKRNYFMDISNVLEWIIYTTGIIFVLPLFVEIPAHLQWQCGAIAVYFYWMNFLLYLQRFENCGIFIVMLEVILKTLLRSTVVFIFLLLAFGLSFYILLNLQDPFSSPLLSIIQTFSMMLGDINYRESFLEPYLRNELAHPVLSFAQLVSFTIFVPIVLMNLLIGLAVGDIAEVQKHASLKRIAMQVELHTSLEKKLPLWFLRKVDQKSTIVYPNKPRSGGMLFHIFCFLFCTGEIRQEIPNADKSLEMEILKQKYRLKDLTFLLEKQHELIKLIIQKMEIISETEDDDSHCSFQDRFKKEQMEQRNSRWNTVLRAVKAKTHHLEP
# Protocol text: Measurement of TRPA1 antagonist activity (intracellular calcium increase, FLIPR, allylisothiocyanate stimulation)
# Assay type: cell-based
# Experimental parameters: 293T cells transfected with human TRPA1; allylisothiocyanate 20 μM; concentration for 50% inhibitory rate; read-out: antagonism hTRPA1
Measured property: IC50 (nM)

Guide cases for IC50, answers given:
- O=C(NCc1cccc(OCc2ccc(C(F)(F)F)cc2)c1)[C@@H]1CCN1S(=O)(=O)c1ccc(F)cc1: 230
- O=C(NCc1cccc(Oc2cccc(Cl)c2)c1)[C@@H]1CCCN1S(=O)(=O)c1ccc(Cl)s1: 45
- O=C(NCc1ccc(COc2ccc(C(F)(F)F)cc2)cc1C(F)(F)F)[C@@H]1CCCN1S(=O)(=O)c1ccc(Cl)s1: 100

(1) O=C(NCc1cccc(Oc2ccc(C(F)(F)F)cc2)c1)[C@@H]1CCN1S(=O)(=O)c1ccc(F)cc1
(2) O=C(NCc1cc(Oc2ccc(C(F)(F)F)cc2)ccn1)[C@@H]1CCCN1S(=O)(=O)c1ccc(Cl)s1
(3) O=C(NCc1ccc(COc2cc3ccccc3cn2)cc1)[C@@H]1CCCN1S(=O)(=O)c1ccc(Cl)s1
(4) CC(C)(C)Oc1ccc(OCc2ccc(CNC(=O)[C@@H]3CCCN3S(=O)(=O)c3ccc(Cl)s3)cc2)cc1
(5) O=C(NCc1c(F)cc(Oc2cccc(C(F)(F)F)c2)cc1F)[C@@H]1CCCN1S(=O)(=O)c1ccc(Cl)s1
Ask | List these items ordered by IC50, big to small. Response format: the labels, sorted as the prompt asks.
Reply | 3, 5, 4, 1, 2
